Cited source for all entries: patent US11207312B2

Each entry below carries its recorded CL5741 S. marcescens MITC95 IMP.
System: Serratia marcescens expressing IMP-1 (CL5741)
Assay type: cell-based
condition-summary: with imipenem 1 μg/ml; 95% inhibition of bacterial growth
Procedure: The bacterial strains tested included the clinical strains Escherichia coil expressing NDM-1 (CLB30005, CLB30016), Serratia marcescens expressing IMP-1 (CL5741), and Klebsiella pneumoniae expressing VIM-1 (H-LMA599644). Inhibitor activity was measured in the presence and absence of imipenem in a 384-well microplate. The clinical strains CLB30016, CL5741 and IHMA599644 were grown on trypticase soy agar containing 5% sheep's blood. […]
quantity: CL5741 S. marcescens MITC95 IMP

| compound | quantity | result |
| --- | --- | --- |
| NS(=O)(=O)c1c(S(=O)(=O)C2CNC2)ccc(N2CC3C(CO)C3C2)c1-c1nnn[nH]1 (stereo not shown) | CL5741 S. marcescens MITC95 IMP | 3.13 µM |
| NS(=O)(=O)c1c(S(=O)(=O)N[C@@H]2CCNC2)ccc(N2CCOC(CCO)C2)c1-c1nnn[nH]1 (stereo partly shown) | CL5741 S. marcescens MITC95 IMP | 6.25 µM |
| NS(=O)(=O)c1c(S(=O)(=O)C2CNC2)ccc(N2CC[C@H](CO)[C@H](F)C2)c1-c1nnn[nH]1 | CL5741 S. marcescens MITC95 IMP | 3.13 µM |
| NC[C@@H](O)CNS(=O)(=O)c1ccc(N2CCN(CCO)C(=O)C2)c(-c2nn[nH]n2)c1S(N)(=O)=O | CL5741 S. marcescens MITC95 IMP | 3.13 µM |
| NS(=O)(=O)c1c(S(=O)(=O)C2CNC2)ccc(N2CCC(O)CC2)c1-c1nnn[nH]1 | CL5741 S. marcescens MITC95 IMP | 3.13 µM |
| NCC(=O)N1CCN(c2ccc(S(=O)(=O)NC[C@H](O)CN)c(S(N)(=O)=O)c2-c2nn[nH]n2)CC1 | CL5741 S. marcescens MITC95 IMP | 0.78 µM |
| NC1(CO)CCN(c2ccc(S(=O)(=O)N[C@@H]3CCNC3)c(S(N)(=O)=O)c2-c2nnn[nH]2)C1 (stereo partly shown) | CL5741 S. marcescens MITC95 IMP | 1.56 µM |
